System: Mycobacterium tuberculosis Erdman (autoluminescent)
ASSAY_PROTOCOL: GRinf, maximum normalised growth rate inhibition (three-drug combination) (unitless (-1 to 1)); higher = less effect (negative = killing)
CONDITIONS_USED: in vitro model: cholesterol-high 0.2 mM; time point: constant (~7 days, model-specific)

{"COMPOUND": "O=[N+]([O-])c1cn2c(n1)OC[C@@H](OCc1ccc(OC(F)(F)F)cc1)C2 [pretomanid] + NC(=O)c1cnccn1 [pyrazinamide] + CO[C@H]1/C=C/O[C@@]2(C)Oc3c(C)c(O)c4c(O)c(c(/C=N/N5CCN(C)CC5)c(O)c4c3C2=O)NC(=O)/C(C)=C\\C=C\\[C@H](C)[C@H](O)[C@@H](C)[C@@H](O)[C@@H](C)[C@H](OC(C)=O)[C@@H]1C [rifampicin]", "GRinf": -0.142}

----------
Test system: Mycobacterium tuberculosis Erdman (autoluminescent)
ASSAY_PROTOCOL: AUC25, normalised area under dose response up to IC25 (three-drug combination) (fraction (0-1)); higher = more potent at low dose
CONDITIONS_USED: in vitro model: butyrate; time point: constant (~7 days, model-specific)
Items are presented alongside their recorded AUC25.

{"COMPOUND": "NNC(=O)c1ccncc1 [isoniazid] + CC(=O)NC[C@H]1CN(c2ccc(N3CCOCC3)c(F)c2)C(=O)O1 [linezolid] + CO[C@H]1/C=C/O[C@@]2(C)Oc3c(C)c(O)c4c(O)c(c(/C=N/N5CCN(C)CC5)c(O)c4c3C2=O)NC(=O)/C(C)=C\\C=C\\[C@H](C)[C@H](O)[C@@H](C)[C@@H](O)[C@@H](C)[C@H](OC(C)=O)[C@@H]1C [rifampicin]", "AUC25": 0.0943}
{"COMPOUND": "COc1nc2ccc(Br)cc2cc1[C@@H](c1ccccc1)[C@@](O)(CCN(C)C)c1cccc2ccccc12 [bedaquiline] + CC(C)/N=c1\\cc2n(-c3ccc(Cl)cc3)c3ccccc3nc-2cc1Nc1ccc(Cl)cc1 [clofazimine] + O=[N+]([O-])c1cn2c(n1)OC[C@@H](OCc1ccc(OC(F)(F)F)cc1)C2 [pretomanid]", "AUC25": 0.0748}
{"COMPOUND": "CC(=O)NC[C@H]1CN(c2ccc(N3CCOCC3)c(F)c2)C(=O)O1 [linezolid] + NC(=O)c1cnccn1 [pyrazinamide] + CO[C@H]1/C=C/O[C@@]2(C)Oc3c(C)c(O)c4c(O)c(c(/C=N/N5CCN(C)CC5)c(O)c4c3C2=O)NC(=O)/C(C)=C\\C=C\\[C@H](C)[C@H](O)[C@@H](C)[C@@H](O)[C@@H](C)[C@H](OC(C)=O)[C@@H]1C [rifampicin]", "AUC25": 0.0912}
{"COMPOUND": "CC[C@@H](CO)NCCN[C@@H](CC)CO [ethambutol] + NC(=O)c1cnccn1 [pyrazinamide] + CO[C@H]1/C=C/O[C@@]2(C)Oc3c(C)c(O)c4c(O)c(c(/C=N/N5CCN(C)CC5)c(O)c4c3C2=O)NC(=O)/C(C)=C\\C=C\\[C@H](C)[C@H](O)[C@@H](C)[C@@H](O)[C@@H](C)[C@H](OC(C)=O)[C@@H]1C [rifampicin]", "AUC25": 0.0895}
{"COMPOUND": "CC(C)/N=c1\\cc2n(-c3ccc(Cl)cc3)c3ccccc3nc-2cc1Nc1ccc(Cl)cc1 [clofazimine] + NC(=O)c1cnccn1 [pyrazinamide] + CO[C@H]1/C=C/O[C@@]2(C)Oc3c(C)c(O)c4c(O)c(c(/C=N/N5CCN(C6CCCC6)CC5)c(O)c4c3C2=O)NC(=O)/C(C)=C\\C=C\\[C@H](C)[C@H](O)[C@@H](C)[C@@H](O)[C@@H](C)[C@H](OC(C)=O)[C@@H]1C [rifapentine]", "AUC25": 0.112}
{"COMPOUND": "O=[N+]([O-])c1cn2c(n1)OC[C@@H](OCc1ccc(OC(F)(F)F)cc1)C2 [pretomanid] + NC(=O)c1cnccn1 [pyrazinamide] + CO[C@H]1/C=C/O[C@@]2(C)Oc3c(C)c(O)c4c(O)c(c(/C=N/N5CCN(C6CCCC6)CC5)c(O)c4c3C2=O)NC(=O)/C(C)=C\\C=C\\[C@H](C)[C@H](O)[C@@H](C)[C@@H](O)[C@@H](C)[C@H](OC(C)=O)[C@@H]1C", "AUC25": 0.101}
{"COMPOUND": "COc1nc2ccc(Br)cc2cc1[C@@H](c1ccccc1)[C@@](O)(CCN(C)C)c1cccc2ccccc12 [bedaquiline] + CC[C@@H](CO)NCCN[C@@H](CC)CO [ethambutol] + NC(=O)c1cnccn1 [pyrazinamide]", "AUC25": 0.0804}
{"COMPOUND": "CC[C@@H](CO)NCCN[C@@H](CC)CO [ethambutol] + CC(=O)NC[C@H]1CN(c2ccc(N3CCOCC3)c(F)c2)C(=O)O1 [linezolid] + CO[C@H]1/C=C/O[C@@]2(C)Oc3c(C)c(O)c4c(O)c(c(/C=N/N5CCN(C)CC5)c(O)c4c3C2=O)NC(=O)/C(C)=C\\C=C\\[C@H](C)[C@H](O)[C@@H](C)[C@@H](O)[C@@H](C)[C@H](OC(C)=O)[C@@H]1C [rifampicin]", "AUC25": 0.0696}
